- system-tested: Integrin alpha-V/beta-8 (Homo sapiens, UniProt P06756+P26012)
- Sequence (P06756 31-889 limits assumed): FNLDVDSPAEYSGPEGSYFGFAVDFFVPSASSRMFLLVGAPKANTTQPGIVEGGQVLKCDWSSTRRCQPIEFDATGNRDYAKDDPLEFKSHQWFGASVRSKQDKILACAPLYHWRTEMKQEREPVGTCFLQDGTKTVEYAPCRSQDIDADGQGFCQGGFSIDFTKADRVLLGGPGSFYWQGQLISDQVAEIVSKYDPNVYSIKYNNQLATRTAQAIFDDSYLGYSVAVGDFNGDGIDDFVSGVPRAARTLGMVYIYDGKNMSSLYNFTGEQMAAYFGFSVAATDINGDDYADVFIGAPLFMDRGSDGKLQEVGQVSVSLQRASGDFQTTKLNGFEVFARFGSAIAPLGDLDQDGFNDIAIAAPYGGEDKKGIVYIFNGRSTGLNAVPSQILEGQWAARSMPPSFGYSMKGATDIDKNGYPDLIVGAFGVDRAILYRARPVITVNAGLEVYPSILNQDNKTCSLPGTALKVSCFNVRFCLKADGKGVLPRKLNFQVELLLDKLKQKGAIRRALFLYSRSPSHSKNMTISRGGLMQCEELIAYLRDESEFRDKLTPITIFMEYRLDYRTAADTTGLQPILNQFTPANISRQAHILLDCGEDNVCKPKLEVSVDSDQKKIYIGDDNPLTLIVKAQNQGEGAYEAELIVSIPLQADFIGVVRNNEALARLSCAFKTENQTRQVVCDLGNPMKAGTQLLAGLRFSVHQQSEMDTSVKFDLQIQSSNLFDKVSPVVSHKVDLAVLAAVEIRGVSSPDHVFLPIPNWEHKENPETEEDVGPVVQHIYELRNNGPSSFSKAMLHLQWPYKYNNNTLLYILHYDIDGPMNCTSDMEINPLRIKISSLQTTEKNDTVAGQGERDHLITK
- Sequence (P06756 891-1048 limits assumed): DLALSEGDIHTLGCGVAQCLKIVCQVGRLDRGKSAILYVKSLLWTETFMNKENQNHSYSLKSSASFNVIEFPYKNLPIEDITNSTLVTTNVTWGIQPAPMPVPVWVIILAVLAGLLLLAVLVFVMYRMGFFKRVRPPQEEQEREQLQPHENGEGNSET
- Sequence (P26012 43-769 limits assumed): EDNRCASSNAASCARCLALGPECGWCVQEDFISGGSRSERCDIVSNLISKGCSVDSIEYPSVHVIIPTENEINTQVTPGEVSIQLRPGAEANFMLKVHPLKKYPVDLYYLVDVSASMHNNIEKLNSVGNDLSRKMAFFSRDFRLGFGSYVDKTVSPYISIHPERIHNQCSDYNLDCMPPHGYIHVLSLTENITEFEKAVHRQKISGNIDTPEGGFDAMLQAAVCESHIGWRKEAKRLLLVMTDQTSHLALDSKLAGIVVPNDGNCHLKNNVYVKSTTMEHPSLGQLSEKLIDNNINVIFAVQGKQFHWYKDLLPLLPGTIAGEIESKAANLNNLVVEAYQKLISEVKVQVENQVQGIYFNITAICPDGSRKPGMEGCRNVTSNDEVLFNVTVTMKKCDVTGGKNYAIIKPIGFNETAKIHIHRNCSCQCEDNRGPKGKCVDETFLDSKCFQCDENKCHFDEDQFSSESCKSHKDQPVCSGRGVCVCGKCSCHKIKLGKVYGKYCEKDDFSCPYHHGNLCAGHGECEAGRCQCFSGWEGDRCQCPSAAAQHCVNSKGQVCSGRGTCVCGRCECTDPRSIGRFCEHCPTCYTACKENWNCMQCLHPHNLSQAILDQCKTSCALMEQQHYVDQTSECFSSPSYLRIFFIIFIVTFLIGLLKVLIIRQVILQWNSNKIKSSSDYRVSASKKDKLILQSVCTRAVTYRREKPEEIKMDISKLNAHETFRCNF
- procedure-summary: Inhibition of alphavbeta8 integrin (unknown origin) by solid phase binding assay
pIC50: −log10 of the molar value.
metric: pIC50

Record for "N=C(N)Nc1cc(NC(=O)CCNC(=O)C23CC4CC(CC(C4)C2)C3)cc(C(=O)NCC(=O)NC[C@H](NC(=O)[C@@H]2CCCN2S(=O)(=O)c2ccccc2)C(=O)O)c1" under target or system Integrin alpha-V/beta-8 (Homo sapiens, UniProt P06756+P26012): pIC50 reported as < 5.00

Record for "N=C(N)Nc1cc(NC(=O)CCCNC(=O)C23CC4CC(CC(C4)C2)C3)cc(C(=O)NCC(=O)NC[C@H](NC(=O)[C@@H]2CCCN2S(=O)(=O)c2ccccc2)C(=O)O)c1" under target or system Integrin alpha-V/beta-8 (Homo sapiens, UniProt P06756+P26012): pIC50 reported as < 5.00

Record for "N=C(N)Nc1cc(NC(=O)CCCC(=O)NC23CC4CC(CC(C4)C2)C3)cc(C(=O)NCC(=O)NC[C@H](NC(=O)[C@@H]2CCCN2S(=O)(=O)c2ccccc2)C(=O)O)c1" under target or system Integrin alpha-V/beta-8 (Homo sapiens, UniProt P06756+P26012): pIC50 reported as < 5.00

Record for "N=C(N)Nc1cc(NC(=O)CNC(=O)C23CC4CC(CC(C4)C2)C3)cc(C(=O)NCC(=O)NC[C@H](NC(=O)[C@@H]2CCCN2S(=O)(=O)c2ccccc2)C(=O)O)c1" under target or system Integrin alpha-V/beta-8 (Homo sapiens, UniProt P06756+P26012): pIC50 reported as < 5.00

Record for "N=C(N)Nc1cc(NC(=O)CCCCNC(=O)C23CC4CC(CC(C4)C2)C3)cc(C(=O)NCC(=O)NC[C@H](NC(=O)[C@@H]2CCCN2S(=O)(=O)c2ccccc2)C(=O)O)c1" under target or system Integrin alpha-V/beta-8 (Homo sapiens, UniProt P06756+P26012): pIC50 reported as 5.17

###

- system-tested: Integrin alpha-V/beta-1 (Homo sapiens, UniProt P05556+P06756)
- Sequence (P05556 21-798 limits assumed): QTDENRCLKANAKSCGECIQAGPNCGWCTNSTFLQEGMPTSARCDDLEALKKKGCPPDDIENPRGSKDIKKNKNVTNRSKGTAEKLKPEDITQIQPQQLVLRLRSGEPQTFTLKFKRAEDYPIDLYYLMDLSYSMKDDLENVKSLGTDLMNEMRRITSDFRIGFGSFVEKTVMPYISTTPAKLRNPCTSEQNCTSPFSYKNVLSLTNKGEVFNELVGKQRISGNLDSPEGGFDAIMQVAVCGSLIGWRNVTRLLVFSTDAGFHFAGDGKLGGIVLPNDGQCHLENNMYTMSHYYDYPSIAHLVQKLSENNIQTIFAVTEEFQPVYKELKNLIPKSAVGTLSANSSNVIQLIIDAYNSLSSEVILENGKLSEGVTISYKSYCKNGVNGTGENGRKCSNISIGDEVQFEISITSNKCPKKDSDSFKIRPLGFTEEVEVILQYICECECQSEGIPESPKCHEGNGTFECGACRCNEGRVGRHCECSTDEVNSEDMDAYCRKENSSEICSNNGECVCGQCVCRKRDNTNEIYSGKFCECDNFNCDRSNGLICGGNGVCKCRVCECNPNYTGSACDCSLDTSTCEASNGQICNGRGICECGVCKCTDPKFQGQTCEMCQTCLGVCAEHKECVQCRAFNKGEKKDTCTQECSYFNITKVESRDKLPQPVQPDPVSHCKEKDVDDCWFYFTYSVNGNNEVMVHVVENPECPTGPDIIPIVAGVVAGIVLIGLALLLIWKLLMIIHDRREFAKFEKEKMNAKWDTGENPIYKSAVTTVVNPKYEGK
- Sequence (P06756 31-889 limits assumed): as the sequence (P06756 31-889 limits assumed) above
- Sequence (P06756 891-1048 limits assumed): as the sequence (P06756 891-1048 limits assumed) above
- procedure-summary: Inhibition of alphavbeta1 integrin (unknown origin) by solid phase binding assay
- Format: protein-complex assay
metric: IC50

Previously resolved entries follow.
N=C(N)Nc1cc(NC(=O)CCCNC(=O)C23CC4CC(CC(C4)C2)C3)cc(C(=O)NCC(=O)NC[C@H](NC(=O)[C@@H]2CCCN2S(=O)(=O)c2ccccc2)C(=O)O)c1 :: 0.14 nM
N=C(N)Nc1cc(NC(=O)CCNC(=O)C23CC4CC(CC(C4)C2)C3)cc(C(=O)NCC(=O)NC[C@H](NC(=O)[C@@H]2CCCN2S(=O)(=O)c2ccccc2)C(=O)O)c1 :: < 0.1 nM
N=C(N)Nc1cc(NC(=O)CNC(=O)C23CC4CC(CC(C4)C2)C3)cc(C(=O)NCC(=O)NC[C@H](NC(=O)[C@@H]2CCCN2S(=O)(=O)c2ccccc2)C(=O)O)c1 :: < 0.1 nM
N=C(N)Nc1cc(NC(=O)CCCCNC(=O)C23CC4CC(CC(C4)C2)C3)cc(C(=O)NCC(=O)NC[C@H](NC(=O)[C@@H]2CCCN2S(=O)(=O)c2ccccc2)C(=O)O)c1 :: < 0.1 nM

We next turn to a different compound, shown below.
// IC50 lookup, compound = "N=C(N)Nc1cc(NC(=O)CCCC(=O)NC23CC4CC(CC(C4)C2)C3)cc(C(=O)NCC(=O)NC[C@H](NC(=O)[C@@H]2CCCN2S(=O)(=O)c2ccccc2)C(=O)O)c1" , result: 0.3 nM

###

- system-tested: Integrin alpha-V/beta-3 (Homo sapiens, UniProt P05106+P06756)
- procedure-summary: Inhibition of alphavbeta3 integrin (unknown origin) expressed in human SW480 cells transfected with human beta3 assessed as inhibition of cell adhesion to fibrinogen incubated for 60 mins by crystal violet staining based analysis
pIC50: −log10 of the molar value.
Please enter Fulfilled where pIC50 is greater than or equal to 5, and Not fulfilled where it is lower.

N=C(N)Nc1cccc(C(=O)NCC(=O)NC[C@H](NC(=O)[C@@H]2CCCN2S(=O)(=O)c2ccccc2)C(=O)O)c1 :: Fulfilled

Below: the item to evaluate.
Identify whether the reported pIC50 of the following compound is 5 or greater: "N=C(N)NCCCCNC(=O)NC[C@H](NC(=O)[C@@H]1CCCN1S(=O)(=O)c1ccccc1)C(=O)O"
Not fulfilled

###

In this section we review reported pIC50 values for a set of compounds.
- system-tested: Integrin alpha-5/beta-1 (Homo sapiens, UniProt P05556+P08648)
- Sequence (P05556 21-798 limits assumed): as the sequence (P05556 21-798 limits assumed) above
- Sequence (P08648 42-894 limits assumed): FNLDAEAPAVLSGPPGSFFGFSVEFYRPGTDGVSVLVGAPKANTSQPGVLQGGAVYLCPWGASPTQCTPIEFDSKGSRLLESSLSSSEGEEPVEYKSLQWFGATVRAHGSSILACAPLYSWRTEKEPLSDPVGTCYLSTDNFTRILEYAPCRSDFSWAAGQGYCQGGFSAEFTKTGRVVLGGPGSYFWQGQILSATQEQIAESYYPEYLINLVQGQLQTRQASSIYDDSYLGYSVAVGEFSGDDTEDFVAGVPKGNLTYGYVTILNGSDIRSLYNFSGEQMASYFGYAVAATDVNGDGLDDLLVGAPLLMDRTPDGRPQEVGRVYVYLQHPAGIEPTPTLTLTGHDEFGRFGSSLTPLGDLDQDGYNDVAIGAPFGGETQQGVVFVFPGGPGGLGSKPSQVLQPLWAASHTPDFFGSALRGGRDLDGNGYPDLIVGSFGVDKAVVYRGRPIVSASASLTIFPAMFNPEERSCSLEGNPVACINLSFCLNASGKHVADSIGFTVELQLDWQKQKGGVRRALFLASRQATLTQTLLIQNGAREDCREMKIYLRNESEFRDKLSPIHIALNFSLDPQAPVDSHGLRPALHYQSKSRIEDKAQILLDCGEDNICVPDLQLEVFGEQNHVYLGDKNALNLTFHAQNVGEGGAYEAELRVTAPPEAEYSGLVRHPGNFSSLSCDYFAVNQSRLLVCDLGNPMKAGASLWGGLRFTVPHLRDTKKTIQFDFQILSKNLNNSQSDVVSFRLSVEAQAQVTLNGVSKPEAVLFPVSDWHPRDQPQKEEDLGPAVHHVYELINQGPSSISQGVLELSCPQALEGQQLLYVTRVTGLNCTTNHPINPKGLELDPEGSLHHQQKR
- Sequence (P08648 895-1049 limits assumed): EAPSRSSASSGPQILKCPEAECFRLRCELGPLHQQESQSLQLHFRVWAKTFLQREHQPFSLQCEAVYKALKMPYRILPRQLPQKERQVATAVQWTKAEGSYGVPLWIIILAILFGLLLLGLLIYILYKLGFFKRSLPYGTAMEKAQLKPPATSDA
- procedure-summary: Inhibition of alpha5beta1 integrin (unknown origin) by solid phase binding assay
- Assay type: protein-complex assay
FYI, pIC50 means -log10 of a concentration in mol per litre.

Previously resolved entries follow.
N=C(N)Nc1cc(NC(=O)CCCNC(=O)C23CC4CC(CC(C4)C2)C3)cc(C(=O)NCC(=O)NC[C@H](NC(=O)[C@@H]2CCCN2S(=O)(=O)c2ccccc2)C(=O)O)c1 :: 9.10
N=C(N)Nc1cc(NC(=O)CCCC(=O)NC23CC4CC(CC(C4)C2)C3)cc(C(=O)NCC(=O)NC[C@H](NC(=O)[C@@H]2CCCN2S(=O)(=O)c2ccccc2)C(=O)O)c1 :: 9.00

Record for "N=C(N)Nc1cc(NC(=O)CNC(=O)C23CC4CC(CC(C4)C2)C3)cc(C(=O)NCC(=O)NC[C@H](NC(=O)[C@@H]2CCCN2S(=O)(=O)c2ccccc2)C(=O)O)c1" under target or system Integrin alpha-5/beta-1 (Homo sapiens, UniProt P05556+P08648): pIC50 reported as 8.80

Record for "N=C(N)Nc1cc(NC(=O)CCCCNC(=O)C23CC4CC(CC(C4)C2)C3)cc(C(=O)NCC(=O)NC[C@H](NC(=O)[C@@H]2CCCN2S(=O)(=O)c2ccccc2)C(=O)O)c1" under target or system Integrin alpha-5/beta-1 (Homo sapiens, UniProt P05556+P08648): pIC50 reported as 9.15

Record for "N=C(N)Nc1cc(NC(=O)CCNC(=O)C23CC4CC(CC(C4)C2)C3)cc(C(=O)NCC(=O)NC[C@H](NC(=O)[C@@H]2CCCN2S(=O)(=O)c2ccccc2)C(=O)O)c1" under target or system Integrin alpha-5/beta-1 (Homo sapiens, UniProt P05556+P08648): pIC50 reported as 8.85

###

In this section we review reported pIC50 values for a set of compounds.
- system-tested: Integrin alpha-V/beta-5 (Homo sapiens, UniProt P06756+P18084)
- Sequence (P06756 31-889 limits assumed): as the sequence (P06756 31-889 limits assumed) above
- Sequence (P06756 891-1048 limits assumed): as the sequence (P06756 891-1048 limits assumed) above
- Sequence (P18084 24-799 limits assumed): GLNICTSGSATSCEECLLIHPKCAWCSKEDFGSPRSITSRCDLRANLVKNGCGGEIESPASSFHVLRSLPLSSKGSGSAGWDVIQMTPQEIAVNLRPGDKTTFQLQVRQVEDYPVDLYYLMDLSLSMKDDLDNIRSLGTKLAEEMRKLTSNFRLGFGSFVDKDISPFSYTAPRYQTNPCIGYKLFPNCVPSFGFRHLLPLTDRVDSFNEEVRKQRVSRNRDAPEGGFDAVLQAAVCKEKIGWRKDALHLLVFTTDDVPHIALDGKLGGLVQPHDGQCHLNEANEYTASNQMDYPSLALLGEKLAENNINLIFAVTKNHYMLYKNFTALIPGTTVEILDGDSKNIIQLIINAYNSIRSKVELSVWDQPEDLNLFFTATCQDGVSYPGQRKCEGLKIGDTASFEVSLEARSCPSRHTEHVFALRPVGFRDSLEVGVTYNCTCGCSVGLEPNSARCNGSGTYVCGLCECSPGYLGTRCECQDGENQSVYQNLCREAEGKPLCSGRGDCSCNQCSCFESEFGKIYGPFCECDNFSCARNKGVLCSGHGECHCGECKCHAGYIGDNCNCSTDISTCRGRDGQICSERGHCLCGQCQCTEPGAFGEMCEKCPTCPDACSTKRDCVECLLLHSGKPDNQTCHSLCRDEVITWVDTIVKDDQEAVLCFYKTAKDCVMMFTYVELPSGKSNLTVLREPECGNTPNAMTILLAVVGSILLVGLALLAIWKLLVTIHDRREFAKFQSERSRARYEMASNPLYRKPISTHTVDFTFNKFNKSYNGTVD
- procedure-summary: Inhibition of alphavbeta5 integrin (unknown origin) by solid phase binding assay
FYI, pIC50 means -log10 of a concentration in mol per litre.

Previously resolved entries follow.
N=C(N)Nc1cc(NC(=O)CCCNC(=O)C23CC4CC(CC(C4)C2)C3)cc(C(=O)NCC(=O)NC[C@H](NC(=O)[C@@H]2CCCN2S(=O)(=O)c2ccccc2)C(=O)O)c1 :: 5.52
N=C(N)Nc1cc(NC(=O)CCCC(=O)NC23CC4CC(CC(C4)C2)C3)cc(C(=O)NCC(=O)NC[C@H](NC(=O)[C@@H]2CCCN2S(=O)(=O)c2ccccc2)C(=O)O)c1 :: 6.01

We next turn to a different compound, shown below.
// pIC50 lookup, compound = "N=C(N)Nc1cc(NC(=O)CCCCNC(=O)C23CC4CC(CC(C4)C2)C3)cc(C(=O)NCC(=O)NC[C@H](NC(=O)[C@@H]2CCCN2S(=O)(=O)c2ccccc2)C(=O)O)c1" , result: 6.49

###

- system-tested: Integrin alpha-V/beta-1 (Homo sapiens, UniProt P05556+P06756)
- procedure-summary: Inhibition of alphavbeta1 integrin (unknown origin) expressed in CHO cells assessed as inhibition of cell adhesion to fibronectin incubated for 60 mins by crystal violet staining based analysis
metric: IC50 (nM)
# value in nM; strip the unit string

Previously resolved entries follow.
N=C(N)Nc1cc(NC(=O)CCCNC(=O)C23CC4CC(CC(C4)C2)C3)cc(C(=O)NCC(=O)NC[C@H](NC(=O)[C@@H]2CCCN2S(=O)(=O)c2ccccc2)C(=O)O)c1 :: 0.8
N=C(N)Nc1cccc(C(=O)NCC(=O)NC[C@H](NC(=O)[C@@H]2CCCN2S(=O)(=O)c2ccccc2)C(=O)O)c1 :: 32
N=C(N)NCCCCCCNC(=O)NC[C@H](NC(=O)[C@@H]1CCCN1S(=O)(=O)c1ccccc1)C(=O)O :: 0.9
N=C(N)NCCCCNC(=O)NC[C@H](NC(=O)[C@@H]1CCCN1S(=O)(=O)c1ccccc1)C(=O)O :: 4
N=C(N)NCCCCCNC(=O)NC[C@H](NC(=O)[C@@H]1CCCN1S(=O)(=O)c1ccccc1)C(=O)O :: 0.8

// IC50 lookup, compound = "N=C(N)NCCCCCC(=O)NC[C@H](NC(=O)[C@@H]1CCCN1S(=O)(=O)c1ccccc1)C(=O)O" , result: 316

// IC50 lookup, compound = "N=C(N)NCCCCC(=O)Nc1ccc(C[C@H](NC(=O)[C@@H]2CCCN2S(=O)(=O)c2ccccc2)C(=O)O)cc1" , result: 0.5

// IC50 lookup, compound = "N=C(N)Nc1cccc(C(=O)NNC(=O)NC[C@H](NC(=O)[C@@H]2CCCN2S(=O)(=O)c2ccccc2)C(=O)O)c1" , result: 158
